- System: ECU
- PROTOCOL: qHTS profiling for inhibitors of Plasmodium falciparum proliferation (AID 504749); also: nearly all actives have a fitted effect of over 60% in size
- MEASUREMENT CONTEXT: P. falciparum in erythrocytes, SYBR Green DNA, 72 h; series mostly up to 28.7 µM
Inconclusive results are not listed. Activity calls are given as the source filed them. Calls follow the shape of the dose curve; as a rule, active = well fitted inhibition curve with a large enough effect; inconclusive = small, poorly fitted or top-dose-only effect; inactive = flat fitted curve, though single readings scatter.
Allowed answers: active, inactive

Previously resolved entries follow.
I'd appreciate the recorded outcome for NCC1(CC(=O)O)CCCCC1 from this test.
inactive

Try this molecule next: Fc1ccc(C(OCCN2CCN(CCCc3ccccc3)CC2)c2ccc(F)cc2)cc1
active

Next molecule up: O=c1[nH]c2ccccc2n1CCCN1CCC(n2c(=O)[nH]c3cc(Cl)ccc32)CC1
active

Please give the result for CC(C)NCC(O)c1ccccc1Cl (configuration not stated) too.
active

More entries:
Recorded call for Nc1ccncc1 ?
inactive

Follow-up item: CC(=O)[C@H]1CC[C@H]2[C@@H]3CC[C@H]4C[C@](C)(O)CC[C@]4(C)[C@H]3CC[C@]12C
inactive

And for c1ccc2c(c1)OCC(C1=NCCN1)O2 (configuration not stated) ?
inactive

Next molecule up: Cc1cccc(C)c1NC1=NCCCS1
inactive

Record: CCC(COC(=O)c1cc(OC)c(OC)c(OC)c1)(c1ccccc1)N(C)C (configuration not stated)
inactive

Record: CCOP(=S)(OCC)Oc1cc(C)nc(C(C)C)n1
inactive

// next record CC(C)CC(N(C)C)C1(c2ccc(Cl)cc2)CCC1 (configuration not stated)
inactive

Another: CC1OC(C)OC(C)O1 (configuration not stated)
inactive

---

- PROTOCOL: qHTS drug screen for cell cycle checkpoint inhibitors in PARPi-resistant BRCA-mutant ovarian cancer cell lines. (AID 1963452)
- MEASUREMENT CONTEXT: PEO1/OlaR viability, CellTiter-Glo luminescence, 96 h; measured here: PEO4 Z-AUC; stronger effect = lower value
Binary label based on Z-AUC with cut-off 0.2: below gives satisfied, not below gives not satisfied.

Here's what some known entries look like.
Please determine if Cn1cc(C2=C(c3cn(C4CCN(Cc5ccccn5)CC4)c4ccccc34)C(=O)NC2=O)c2ccccc21 is below 0.2 in terms of Z-AUC.
satisfied

Entry O=C1CC[C@@]2(O)[C@H]3Cc4ccc(O)c5c4[C@@]2(CCN3CC2CC2)[C@H]1O5 please
satisfied

Now the molecule O=C(O)C(=O)c1cn(Cc2ccccc2)c2ccc(-c3ccc(OC(F)(F)F)cc3)cc12
not satisfied

Another molecule: NN=C(N)N
not satisfied

Next:
I'd appreciate it if you could check whether Cc1cccc(C)c1NC(=O)CN1CCCC1=O has Z-AUC smaller than 0.2.
not satisfied

Here is the next molecule: Cn1c(CCCC(=O)O)nc2cc(N(CCCl)CCCl)ccc21
not satisfied

Param item: CNCC(O)c1ccc(O)cc1 (stereo unspecified)
satisfied

---

- System: 7G8
- PROTOCOL: qHTS profiling for inhibitors of Plasmodium falciparum proliferation (AID 504749); also: nearly all actives have a fitted effect of over 60% in size; also: potency is read from the fitted curve at half-maximal effect
- MEASUREMENT CONTEXT: P. falciparum in erythrocytes, SYBR Green DNA, 72 h; series mostly up to 28.7 µM
Records with an inconclusive call do not appear. Activity calls are given as the source filed them. Calls come from the whole dose curve; as a rule, active = well fitted inhibition curve with a large enough effect; inconclusive = small, poorly fitted or top-dose-only effect; inactive = flat fitted curve, though single readings scatter.
ASSAY METRIC: Potency

Reference set (5 entries):
Reported Potency for CC(C)CC(N(C)C)C1(c2ccc(Cl)cc2)CCC1 (stereo unspecified) : what is it?
inactive

Would you mind doing O=C(O)c1ccc2[nH]cc(CCCCN3CC=C(c4ccccc4)CC3)c2c1 as well?
inactive

Queued: Fc1ccc(C(OCCN2CCN(CCCc3ccccc3)CC2)c2ccc(F)cc2)cc1
3.55 µM (active)

Let us now turn to FC(F)(F)c1cccc(C2=CCN(CCc3ccc4ccccc4c3)CC2)c1
inactive

Input CC[N+]1(C)CCCC(OC(=O)C(O)(c2ccccc2)c2ccccc2)C1 (stereo unspecified)
inactive

Report Potency for each item below.
1. Cc1ccc(-c2nc3ccc(C)cn3c2CC(=O)N(C)C)cc1
2. CCC(C(N)=O)N1CCCC1=O (stereo unspecified)
3. CCOP(=S)(OCC)Oc1cc(C)nc(C(C)C)n1
4. N[C@@H](Cc1ccc(N(CCCl)CCCl)cc1)C(=O)O
5. C=C1CC[C@@]2(O)[C@H]3Cc4ccc(O)c5c4[C@@]2(CCN3CC2CC2)[C@H]1O5
6. NCCc1cc(O)c(O)cc1O

["inactive", "inactive", "inactive", "11.2 µM (active)", "inactive", "inactive"]

---

- PROTOCOL: Cell Viability - LYMP2-002 (AID 977);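 also: compound exposure lasted 24 h at 37 °C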
- MEASUREMENT CONTEXT: LYMP2-002 lymphoblastoid cell viability, qHTS; series mostly up to 92.2 µM
- Text: NIH Chemical Genomics Center [NCGC] NIH Molecular Libraries Screening Centers Network [MLSCN] National Institutes of Environmental Health Sciences [NIEHS] National Toxicology Program [NTP] We have developed a 1536-well cell-based assay for quantitative high throughput screening (qHTS) against a number of cell lines to determine in vitro cytotoxicity of small molecules. […] 8. Detection; Luminescence; Viewlux plate reader […]
Inconclusive results are not listed. Calls of active or inactive are those of the source. Calls follow the shape of the dose curve; as a rule, active = well fitted cell-killing curve with a large enough effect; inconclusive = small, poorly fitted or top-dose-only effect; inactive = flat fitted curve, though single readings scatter.
Use one of these outcomes when replying: active, inactive

How was N[C@@H](Cc1ccc(N(CCCl)CCCl)cc1)C(=O)O classified in this test?
active

Consider next the compound CC(=O)Oc1ccccc1C(=O)Nc1ncc([N+](=O)[O-])s1 in the same way.
active

Same again, this time with c1ccc2c(c1)Nc1ccccc1S2
inactive

Follow-up entry: Oc1ccc(Cl)cc1Cc1ccccc1
inactive

Would you mind doing CCCC(C)(COC(N)=O)COC(=O)NC(C)C (configuration not stated) as well?
inactive

// same read-out, input: CC(COc1ccccc1)N(CCCl)Cc1ccccc1 (configuration not stated)
active

Proceed to CCOP(=S)(OCC)Oc1cc(C)nc(C(C)C)n1
inactive

---

- PROTOCOL: S16 Schwann cell PMP22 intronic element beta-lactamase assay (AID 624044); also: nearly all actives have a fitted effect of over 15% in size
- MEASUREMENT CONTEXT: S16 rat Schwann cells, PMP22 element beta-lactamase FRET, 24 h; series mostly up to 38.3 µM
Inconclusive results are not listed. Activity calls are given as the source filed them. Calls come from the whole dose curve.
Permitted responses: active, inactive

Answered cases to consult:
Assay result, entry C#CCOC(C(=O)OCCN(C)C)(c1ccccc1)c1ccccc1 — outcome?
inactive

Check O=[N+]([O-])c1cc([As](=O)(O)O)ccc1O too.
inactive

COc1cc([C@@H]2c3cc4c(cc3[C@H](O)[C@H]3COC(=O)[C@H]23)OCO4)cc(OC)c1OC , same question.
active

Please do the same for Cc1cccc(C)c1NC1=NCCCS1 as well.
inactive

Record: NC(=Nc1ccccc1)Nc1ccccc1
inactive

More entries:
Would you mind telling me which call this test gave CC[C@@H](CO)NC(=O)[C@@H]1C=C2c3cccc4c3c(cn4C)C[C@H]2N(C)C1 ?
inactive

Input CC[C@@H](CO)NC(=O)[C@@H]1C=C2c3cccc4[nH]cc(c34)C[C@H]2N(C)C1
inactive

And what about the compound CC(C)(C)CC(C)(C)c1ccc(O)cc1 ?
inactive

Now this one: CC(C)=CC1C(C(=O)OCc2cccc(Oc3ccccc3)c2)C1(C)C (stereo unspecified)
inactive

Then Oc1cc(Cl)ccc1Oc1ccc(Cl)cc1Cl ?
inactive

# iterate: CC(C)CC(N(C)C)C1(c2ccc(Cl)cc2)CCC1 (stereo unspecified)
inactive

---

- PROTOCOL: qHTS profiling for inhibitors of Plasmodium falciparum (HB3) proliferation (AID 743324);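 also: 100% = DMSO vehicle wells and 0% = artemisinin-treated control wells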
- MEASUREMENT CONTEXT: Plasmodium falciparum HB3 blood-stage proliferation; at 28.7 µM (top of the series)
ASSAY METRIC: remaining proliferation (% of control), lower = more inhibition (%)
Numbers only, in %.

Completed entries (count: 2):
I have this compound here, O=C(O)C(=O)c1cn(Cc2ccccc2)c2ccc(-c3ccc(OC(F)(F)F)cc3)cc12 , and I need its recorded remaining proliferation (% of control), lower = more inhibition.
30.7

# iterate: CC1=C2C[C@@H]3[C@@H](CC=C4C[C@@H](O)CC[C@@]43C)[C@@H]2CC[C@]12O[C@H]1C[C@H](C)CN[C@H]1[C@H]2C
5.81

Others:
State the recorded remaining proliferation (% of control), lower = more inhibition for this entry: COC1(CS(=O)c2ccccc2)CCN(CCc2c[nH]c3ccc(F)cc23)CC1 (stereo not drawn)
10

---

- MEASUREMENT CONTEXT: Ebola virus entry assay, ratio channel readout
Active and inactive are the calls of the source.
Valid outcomes are listed here; reply with one: active, inactive

Solved entries (count: 5):
Test call for this molecule, please: O=C(OC1C[C@H]2CC[C@@H](C1)[N+]21CCCC1)C(O)(c1ccccc1)c1ccccc1 (stereo not given in full)
inactive

Follow-up entry: CC[C@@H]([C@H](C)O)n1ncn(-c2ccc(N3CCN(c4ccc(OC[C@@H]5CO[C@@](Cn6cncn6)(c6ccc(F)cc6F)C5)cc4)CC3)cc2)c1=O
inactive

How about this molecule: CN(C)CCc1c[nH]c2ccc(C[C@H]3COC(=O)N3)cc12
inactive

And for CC(C)NCC(O)COc1cccc2[nH]ccc12 (stereo not given) ?
inactive

Now try Cc1ccccc1C(OCCN(C)C)c1ccccc1 (stereo not given) .
inactive

# input for lookup
Answer briefly: the call reported for C[C@]12CC[C@@H]3c4ccc(O)cc4C[C@@H](CCCCCCCCCS(=O)CCCC(F)(F)C(F)(F)F)[C@H]3[C@@H]1CC[C@@H]2O (stereo not given in full) in this assay.
inactive
